This collection of values is drawn from paper PMC3679140.

Reported pIC50 values follow for various compounds
Target: PAR4 (Homo sapiens, UniProt Q96RI0)
Construct: Human platelets express both PAR1 and PAR4; endogenous in cells; host or cells: washed human platelets from volunteer donors
Sequence (Q96RI0 18-385): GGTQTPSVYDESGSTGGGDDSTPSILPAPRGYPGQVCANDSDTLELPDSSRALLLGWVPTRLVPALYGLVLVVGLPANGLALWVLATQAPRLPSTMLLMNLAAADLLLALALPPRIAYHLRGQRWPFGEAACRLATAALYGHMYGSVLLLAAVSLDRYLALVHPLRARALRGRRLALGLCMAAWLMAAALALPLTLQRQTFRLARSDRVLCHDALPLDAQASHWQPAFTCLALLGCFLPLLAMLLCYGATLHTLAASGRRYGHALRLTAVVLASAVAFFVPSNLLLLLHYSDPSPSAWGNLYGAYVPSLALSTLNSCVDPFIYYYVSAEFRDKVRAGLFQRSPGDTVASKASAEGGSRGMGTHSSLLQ
Assay: Flow cytometry: PAR4-AP mediated GPIIbIIIa activation (PAC-1 binding) in washed platelets
Assay type: cell-based
Settings: 200 µM PAR4-AP, compound 5 min before; normalized to DMSO control; Figure 4
Units for pIC50: none; it is -log10 of a concentration expressed in mol/L.

pIC50 lookup needed for `CCOC(=O)c1ccc(-c2cn(Cc3ccccc3)c3ncccc23)cc1` , thanks. 6.77

I have this compound here, CCOC(=O)c1ccc(-c2nn(Cc3ccccc3)c3ccccc23)cc1 [YD-3, reference compound] , and I need its recorded pIC50. 7.59

Suppose we examine the compound `CCOC(=O)c1ccc(-c2cn(Cc3ccccn3)c3ccccc23)cc1` ; what pIC50 value has been reported? 6.00
